- Target Or Test System: Phosphatidylinositol 4,5-bisphosphate 3-kinase catalytic subunit beta isoform (Homo sapiens)
- Sequence (P42338 whole entry, canonical isoform): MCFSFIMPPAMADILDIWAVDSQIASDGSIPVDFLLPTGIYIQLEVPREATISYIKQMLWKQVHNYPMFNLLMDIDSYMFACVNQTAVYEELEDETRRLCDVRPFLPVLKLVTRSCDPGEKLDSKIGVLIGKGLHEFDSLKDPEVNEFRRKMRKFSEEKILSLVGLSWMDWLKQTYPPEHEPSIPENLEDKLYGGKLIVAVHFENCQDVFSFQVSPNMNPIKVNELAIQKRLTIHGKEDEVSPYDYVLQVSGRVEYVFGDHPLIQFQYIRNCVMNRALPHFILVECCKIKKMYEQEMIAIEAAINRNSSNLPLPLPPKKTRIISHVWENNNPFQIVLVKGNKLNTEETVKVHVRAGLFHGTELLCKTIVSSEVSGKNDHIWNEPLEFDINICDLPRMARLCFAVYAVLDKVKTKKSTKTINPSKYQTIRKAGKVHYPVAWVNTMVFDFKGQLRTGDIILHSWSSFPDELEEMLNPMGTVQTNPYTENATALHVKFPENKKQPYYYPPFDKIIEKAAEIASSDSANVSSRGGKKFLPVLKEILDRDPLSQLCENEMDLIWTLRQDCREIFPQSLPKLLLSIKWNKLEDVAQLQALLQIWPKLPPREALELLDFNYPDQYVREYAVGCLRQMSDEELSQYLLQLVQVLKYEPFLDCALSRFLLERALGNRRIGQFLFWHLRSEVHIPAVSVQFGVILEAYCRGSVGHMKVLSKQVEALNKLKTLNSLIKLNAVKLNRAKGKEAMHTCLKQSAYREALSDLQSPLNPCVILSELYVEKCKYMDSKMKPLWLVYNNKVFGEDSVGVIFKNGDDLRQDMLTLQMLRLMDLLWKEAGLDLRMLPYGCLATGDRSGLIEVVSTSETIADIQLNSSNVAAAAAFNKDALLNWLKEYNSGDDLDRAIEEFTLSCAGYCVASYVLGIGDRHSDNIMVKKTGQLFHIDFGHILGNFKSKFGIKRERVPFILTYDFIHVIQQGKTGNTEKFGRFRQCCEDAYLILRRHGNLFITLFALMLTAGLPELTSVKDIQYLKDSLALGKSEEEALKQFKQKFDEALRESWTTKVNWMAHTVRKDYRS
- Assay Info: Inhibition of PI3Kbeta (unknown origin) using diC8-PI(4,5)P2 as substrate incubated for 3 hrs in presence of ATP by fluorescence polarization assay
Measurement Type: IC50

// query Reported IC50, compound O=c1oc2ccccc2c2nn(CN3CCN(S(=O)(=O)c4ccc(C(F)(F)F)cc4)CC3)cc12 : ____
// result 5.75 µM

// query And O=c1oc2ccccc2c2nn(CN3CCN(S(=O)(=O)c4cccc([N+](=O)[O-])c4)CC3)cc12 ?
// result > 10 µM

// query And Cc1cc(C)c(S(=O)(=O)N2CCN(Cn3cc4c(=O)oc5ccccc5c4n3)CC2)c(C)c1 ?
// result 0.41 µM

----------
- Test system: Huh-7
- Assay Info: Antiproliferative activity against human HuH7 cells assessed as reduction in cell viability after 48 hrs by MTT assay
- Type: functional, cell-based
- Measurement Conditions: Huh-7, 48 h
Field: pIC50. Provide a value for each of the compounds that follow.
pIC50 (log units): -log10 of the concentration in mol/L.

// query Reported pIC50, compound O=c1oc2ccccc2c2nn(CN3CCN(S(=O)(=O)c4ccccc4[N+](=O)[O-])CC3)cc12 : ____
// result 5.10

// query And Cc1ccc(S(=O)(=O)N2CCN(Cn3cc4c(=O)oc5ccccc5c4n3)CC2)cc1 ?
// result 4.54

// query And O=c1oc2ccccc2c2nn(CN3CCN(S(=O)(=O)c4ccc([N+](=O)[O-])cc4)CC3)cc12 ?
// result 5.55

// query And O=c1oc2ccccc2c2nn(CN3CCN(S(=O)(=O)c4ccc(F)cc4)CC3)cc12 ?
// result 5.19

// query And COc1ccc(S(=O)(=O)N2CCN(Cn3cc4c(=O)oc5ccccc5c4n3)CC2)cc1 ?
// result 4.47

----------
- Tested on: Huh-7
- Assay Info: Antiproliferative activity against human HuH7 cells assessed as reduction in cell viability after 48 hrs by MTT assay
- Format: functional, cell-based
- Measurement Conditions: Huh-7, 48 h
Field: pIC50. Provide a value for each of the compounds that follow.
pIC50 (log units): -log10 of the concentration in mol/L.

// query Reported pIC50, compound Cn1c(=O)n(-c2ccc(C(C)(C)C#N)cc2)c2c3cc(-c4cnc5ccccc5c4)ccc3ncc21 : ____
// result 6.28

// query And O=c1oc2ccccc2c2nn(CN3CCN(S(=O)(=O)c4ccc(C(F)(F)F)cc4)CC3)cc12 ?
// result 5.63

// query And CC(C)c1cc(C(C)C)c(S(=O)(=O)N2CCN(Cn3cc4c(=O)oc5ccccc5c4n3)CC2)c(C(C)C)c1 ?
// result 6.85

// query And O=c1oc2ccccc2c2nn(CN3CCN(S(=O)(=O)c4ccc(Cl)cc4)CC3)cc12 ?
// result 5.79

// query And CS(=O)(=O)N1CCN(Cn2cc3c(=O)oc4ccccc4c3n2)CC1 ?
// result 4.01

// query And O=c1oc2ccccc2c2nn(CN3CCN(S(=O)(=O)c4cccc([N+](=O)[O-])c4)CC3)cc12 ?
// result 5.44

// query And Cc1cc(C)c(S(=O)(=O)N2CCN(Cn3cc4c(=O)oc5ccccc5c4n3)CC2)c(C)c1 ?
// result 6.52

// query And CC(C)(C)c1ccc(S(=O)(=O)N2CCN(Cn3cc4c(=O)oc5ccccc5c4n3)CC2)cc1 ?
// result 6.05

// query And O=c1oc2ccccc2c2nn(CN3CCN(S(=O)(=O)c4ccccc4)CC3)cc12 ?
// result 4.95

// query And Cc1ccc(C)c(S(=O)(=O)N2CCN(Cn3cc4c(=O)oc5ccccc5c4n3)CC2)c1 ?
// result 6.18

----------
- System: Huh-7
- Assay Info: Antiproliferative activity against human HuH7 cells assessed as reduction in cell viability after 48 hrs by MTT assay
- Format: functional, cell-based
- Measurement Conditions: Huh-7, 48 h
Measurement Type: IC50

// query Reported IC50, molecule CCS(=O)(=O)N1CCN(Cn2cc3c(=O)oc4ccccc4c3n2)CC1 : ____
// result > 100 µM

// query And CCCCS(=O)(=O)N1CCN(Cn2cc3c(=O)oc4ccccc4c3n2)CC1 ?
// result > 100 µM

// query And O=c1oc2ccccc2c2nn(CN3CCN(S(=O)(=O)C(F)(F)F)CC3)cc12 ?
// result > 100 µM

Data credit: ChEMBL document CHEMBL4359902
